Tested on: G-402 (Other Solid Carcinomas)
Measurement Protocol: Bliss excess, mean over the matrix (fraction); higher = more synergy
// values below are reported Bliss excess

| Compound | Bliss excess |
| --- | --- |
| COc1cccc(OCCCN)c1-c1cc(Nc2cnc(C#N)cn2)n[nH]1 [Prexasertib] + CN(C)CCCOc1ccc(-c2ccc3ncc4c(c3c2)n(C2CCOCC2)c(=O)n4C)cn1 [AZD0156] (first compound max 1 µM, 7x7, partner max 1 µM) | 0.0003 |
| COc1nnc2ccc(N3CCC(c4ccc(OCCN5CCN(C)C(=O)[C@H]5C)cc4)CC3)nn12 [AZD5153] + Cc1c2c(nn1C)CSCc1cc(n(C)n1)CSc1cc(c3ccccc3c1)OCCCc1c(C(=O)O)n(C)c3c-2c(Cl)ccc13 [AZD5991] (first compound max 1 µM, 7x7, partner max 1 µM) | 0.044 |
| CN(CCO)CC[C@H](CSc1ccccc1)Nc1ccc(S(=O)(=O)NC(=O)c2ccc(N3CCC([C@@H](O)c4ccccc4-c4ccc(Cl)cc4)CC3)cc2)cc1S(=O)(=O)C(F)(F)F [AZD4320] + CCN(CCO)CCCOc1ccc2c(Nc3cc(CC(=O)Nc4cccc(F)c4)[nH]n3)ncnc2c1 [AZD2811] (first compound max 1 µM, 7x7, partner max 1 µM) | 0.0415 |

====

// values below are reported Bliss excess
Tested on: EW-7 (Ewing's Sarcoma)
Measurement Protocol: Bliss excess, mean over the matrix (fraction); higher = more synergy

| Compound | Bliss excess |
| --- | --- |
| CN(C)CCCOc1ccc(-c2ccc3ncc4c(c3c2)n(C2CCOCC2)c(=O)n4C)cn1 [AZD0156] + CCN(CCO)CCCOc1ccc2c(Nc3cc(CC(=O)Nc4cccc(F)c4)[nH]n3)ncnc2c1 [AZD2811] (first compound max 1 µM, 7x7, partner max 1 µM) | 0.0718 |
| COc1nnc2ccc(N3CCC(c4ccc(OCCN5CCN(C)C(=O)[C@H]5C)cc4)CC3)nn12 [AZD5153] + Cn1cnc2c(F)c(Nc3ccc(Br)cc3Cl)c(C(=O)NOCCO)cc21 [Selumetinib] (first compound max 1 µM, 7x7, partner max 10 µM) | -0.032 |
| CN(CCO)CC[C@H](CSc1ccccc1)Nc1ccc(S(=O)(=O)NC(=O)c2ccc(N3CCC([C@@H](O)c4ccccc4-c4ccc(Cl)cc4)CC3)cc2)cc1S(=O)(=O)C(F)(F)F [AZD4320] + CS(=O)(=O)CCNCc1ccc(-c2ccc3ncnc(Nc4ccc(OCc5cccc(F)c5)c(Cl)c4)c3c2)o1 [Lapatinib] (first compound max 1 µM, 7x7, partner max 10 µM) | 0.138 |

====

System: MHH-ES-1 (Ewing's Sarcoma)
Measurement Protocol: combination Emax (second highest fraction inhibited in the dose matrix, 72 h); higher = more inhibition; extreme values may be limits of the assay
Quantity Name: combination Emax

| Molecule | Obs Value |
| --- | --- |
| NC1(C(=O)N[C@@H](CCO)c2ccc(Cl)cc2)CCN(c2ncnc3[nH]ccc23)CC1 [Capivasertib] + CC(=O)c1c(C)c2cnc(Nc3ccc(N4CCNCC4)cn3)nc2n(C2CCCC2)c1=O [Palbociclib] (first compound max 10 µM, 7x7, partner max 10 µM) | 0.5 |
| COc1cccc(OCCCN)c1-c1cc(Nc2cnc(C#N)cn2)n[nH]1 [Prexasertib] + CCc1c2c(nc3ccc(O)cc13)-c1cc3c(c(=O)n1C2)COC(=O)[C@]3(O)CC [SN-38] (first compound max 1 µM, 7x7, partner max 0.3 µM) | 1 |
| C=CCn1c(=O)c2cnc(Nc3ccc(N4CCN(C)CC4)cc3)nc2n1-c1cccc(C(C)(C)O)n1 [AZD1775] + Nc1ccn([C@@H]2O[C@H](CO)[C@@H](O)C2(F)F)c(=O)n1 [Gemcitabine] (first compound max 1 µM, partner max 0.3 µM) | 0.983 |
| CN(C)CCCOc1ccc(-c2ccc3ncc4c(c3c2)n(C2CCOCC2)c(=O)n4C)cn1 [AZD0156] + C[C@@H]1COCCN1C2=NC(=NC(=C2)C3(CC3)[S@](=N)(=O)C)C4=C5C=CNC5=NC=C4 [AZD6738] (first compound max 1 µM, 7x7, partner max 10 µM) | 0.638 |
| Cc1c2c(nn1C)CSCc1cc(n(C)n1)CSc1cc(c3ccccc3c1)OCCCc1c(C(=O)O)n(C)c3c-2c(Cl)ccc13 [AZD5991] + Cn1cnc2c(F)c(Nc3ccc(Br)cc3Cl)c(C(=O)NOCCO)cc21 [Selumetinib] (first compound max 1 µM, 7x7, partner max 3 µM) | 0.672 |
| CN(C)CCCOc1ccc(-c2ccc3ncc4c(c3c2)n(C2CCOCC2)c(=O)n4C)cn1 [AZD0156] + CCN(CCO)CCCOc1ccc2c(Nc3cc(CC(=O)Nc4cccc(F)c4)[nH]n3)ncnc2c1 [AZD2811] (first compound max 1 µM, 7x7, partner max 1 µM) | 0.55 |
| C=CCn1c(=O)c2cnc(Nc3ccc(N4CCN(C)CC4)cc3)nc2n1-c1cccc(C(C)(C)O)n1 [AZD1775] + O=C(c1cc(Cc2n[nH]c(=O)c3ccccc23)ccc1F)N1CCN(C(=O)C2CC2)CC1 [Olaparib] (first compound max 1 µM, partner max 10 µM) | 0.886 |
